target: Receptor tyrosine-protein kinase erbB-2 (Homo sapiens); experiment: ERBB2 kinase inhibitors, dose response, biochemical, Z'-LYTE FRET, direct format, recombinant human (AID 1671289); conditions: Z'-LYTE FRET kinase activity

structure.smiles.string: COc1cc2ncnc(Nc3cccc(Cl)c3)c2cc1OC
IC50: 46.5 nM
